- Tested Target: SMYD3 (Homo sapiens (Human))
- Sequence (Q9H7B4 whole entry): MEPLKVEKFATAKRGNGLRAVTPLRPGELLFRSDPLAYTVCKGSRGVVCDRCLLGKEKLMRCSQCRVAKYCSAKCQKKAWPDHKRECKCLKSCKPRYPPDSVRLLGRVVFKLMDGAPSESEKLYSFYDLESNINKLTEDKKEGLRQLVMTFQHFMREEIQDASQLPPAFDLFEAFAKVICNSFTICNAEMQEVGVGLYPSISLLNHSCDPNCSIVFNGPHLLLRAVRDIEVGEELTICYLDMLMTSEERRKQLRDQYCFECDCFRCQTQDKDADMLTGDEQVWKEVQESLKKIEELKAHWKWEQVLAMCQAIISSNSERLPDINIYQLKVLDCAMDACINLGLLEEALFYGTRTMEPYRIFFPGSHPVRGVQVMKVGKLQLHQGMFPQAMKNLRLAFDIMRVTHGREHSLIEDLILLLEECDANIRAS
- Test Summary: SMYD3 biochemical assay (SMYD3 enzyme assay on MEKK2 protein substrate, 3H-SAM scintillation proximity assay)
- Test Conditions: read-out: SMYD3 Biochem IC50 (μM)*
Label 1 (yes) when IC50 < 70 µM; otherwise 0 (no).

Compound: N[C@H]1CC[C@H](NC(=O)c2ccc3c(c2)CCC(=O)N3)CC1
Group Label: 1 (yes)
//
Compound: N[C@H]1CC[C@H](NC(=O)c2ccc(-c3ccccc3)cc2)CC1
Group Label: 0 (no)
//
Compound: CC(N)C(=O)N[C@H]1CC[C@H](NC(=O)c2ccc3c(c2)CC(=O)N3)CC1 (stereo partly drawn)
Group Label: 1 (yes)
//
Compound: CC1(CNC(=O)c2ccc3c(c2)CC(=O)N3)CCNCC1
Group Label: 1 (yes)
//
Compound: NCCC(=O)N[C@H]1CC[C@H](NC(=O)c2ccc(S(N)(=O)=O)cc2)CC1
Group Label: 0 (no)
//
Compound: Cc1cc(C(=O)NC(c2ccccc2)C2CCNCC2)n(Cc2ccccc2)n1 (stereo not drawn)
Group Label: 0 (no)
//
Compound: C[C@H](N)C(=O)NCCCCNC(=O)c1ccc2c(c1)CC(=O)N2
Group Label: 1 (yes)
//
Compound: C[C@@H](N)C(=O)N1CC[C@@H](CNC(=O)c2ccc3c(c2)CC(=O)N3)C1
Group Label: 1 (yes)
//
Compound: CCc1nc(C(=O)N[C@H]2CC[C@H](N)CC2)co1
Group Label: 0 (no)
//
Compound: N[C@H]1CC[C@H](NC(=O)c2ccc3c(c2)NC(=O)CO3)CC1
Group Label: 1 (yes)
//
Compound: CC(=O)Nc1ccc(S(=O)(=O)N2CCC(NC(=O)c3cc[nH]n3)CC2)cc1
Group Label: 0 (no)
//
Compound: CCC(=O)c1c[nH]c(C(=O)NC(c2ccccc2)C2CCNCC2)c1 (stereo not drawn)
Group Label: 1 (yes)
//
Compound: CC(NC(=O)c1ccc2oc(=O)ccc2c1)C1CCN(C(=O)[C@H](C)N)CC1 (stereo partly drawn)
Group Label: 0 (no)
//
Compound: CC(NC(=O)c1ccc2ccc(O)nc2c1)C1CCN(C(=O)[C@H](C)N)CC1 (stereo partly drawn)
Group Label: 0 (no)
//
Compound: C[C@@H](N)C(=O)NCCCCNC(=O)c1ccc2c(c1)CC(=O)N2
Group Label: 1 (yes)
//
Compound: O=C1CNc2cc(C(=O)NC3CCNCC3)ccc2N1
Group Label: 1 (yes)
//
Compound: COc1cc(C(=O)N[C@H]2CC[C@H](N)CC2)cc2c1OCC(=O)N2
Group Label: 0 (no)
//
Compound: CCC(=O)Nc1cccc(C(=O)N[C@H]2CC[C@H](N)CC2)c1
Group Label: 0 (no)
//
Compound: CN1C(=O)Cc2cc(C(=O)NC3CCN(C(=O)[C@@H](N)Cc4ccc(O)cc4)CC3)ccc21
Group Label: 1 (yes)
//
Compound: CS(=O)(=O)c1cccc(C(=O)N[C@H]2CC[C@H](N)CC2)c1
Group Label: 0 (no)
//
Compound: N[C@H]1CC[C@H](NC(=O)Cc2cccnc2)CC1
Group Label: 0 (no)
//
Compound: CCc1ncc(C(=O)N[C@H]2CC[C@H](N)CC2)s1
Group Label: 0 (no)
//
Compound: Nc1nc(C(=O)NC(c2ccccc2)C2CCNCC2)co1 (stereo not drawn)
Group Label: 0 (no)
//
Compound: CC(NC(=O)Cc1c[nH]c2ccccc12)C1CCN(C(=O)[C@H](C)N)CC1 (stereo partly drawn)
Group Label: 0 (no)
//
Compound: N[C@H]1CC[C@H](NC(=O)c2ccc3c(c2)CC(=O)N3)CC1 [compound 42]
Group Label: 1 (yes)
//
Compound: O=C1Cc2cc(C(=O)NC(c3ccccc3)C3CCNCC3)ccc2N1 (stereo not drawn)
Group Label: 1 (yes)
//
Compound: CCn1nc(C)cc1C(=O)N[C@H]1CC[C@H](N)CC1
Group Label: 0 (no)
//
Compound: N[C@@H](Cc1ccc(O)cc1)C(=O)N1CCC(NC(=O)c2ccc3c(c2)NC(=O)C3)CC1
Group Label: 1 (yes)
//
Compound: O=C1Cc2cc(C(=O)NCC3(O)CCNCC3)ccc2N1
Group Label: 1 (yes)
//
Compound: CC(NC(=O)c1ccc2ccccc2n1)C1CCN(C(=O)[C@H](C)N)CC1 (stereo partly drawn)
Group Label: 0 (no)
//
Compound: C[C@H](N)C(=O)N1CCC(F)(CNC(=O)c2ccc3c(c2)CC(=O)N3)CC1
Group Label: 1 (yes)
//
Compound: Cc1n[nH]c(C)c1C(=O)NC(C)C1CCN(C(=O)[C@H](C)N)CC1 (stereo partly drawn)
Group Label: 0 (no)
//
Compound: N[C@H]1CC[C@H](NC(=O)c2ccc3c(c2)CC(=O)N3)CC1 [compound 40]
Group Label: 1 (yes)
//
Compound: CCC(=O)c1c[nH]c(C(=O)Nc2ccc(CN)cc2)c1
Group Label: 0 (no)
//
Compound: CC(NC(=O)c1ccc2ncc(O)nc2c1)C1CCN(C(=O)[C@H](C)N)CC1 (stereo partly drawn)
Group Label: 1 (yes)
//
Compound: CC(NC(=O)c1ccc2c(c1)CCC(=O)N2)C1CCN(C(=O)[C@H](C)N)CC1 (stereo partly drawn)
Group Label: 0 (no)
